Source: PubChem BioAssay (NCI)

# Test system: SNB-78 CNS
# protocol_summary: NCI tumour cell line growth inhibition, 48 h
Known TGI of a selection of compounds

# compound, TGI
measured = [
    ("COc1ccccc1/C=C1\\CCC(Cc2ccccc2)(CN(C)C)C1=O (centres undefined)", "> 23.2 µM"),
    ("COc1cc2ccnc(C#N)c2cc1OCc1ccccc1", "> 100 µM"),
    ("[O-]c1c2c(nn1-c1ccc(F)cc1)c1ccccc1c[n+]2Cc1ccccc1", "35.4 µM"),
    ("O=C(O)C12C3CCC(C3)C1(C(=O)O)C1CCC2C1 (centres undefined)", "> 100 µM"),
    ("CCOC(=O)C(C(=O)OCC)c1cc(-c2cc3ccccc3o2)oc(=O)c1C#N", "73.4 µM"),
    ("COc1ccc(OC(=O)N2C/C(=C\\c3ccccc3)C(=O)/C(=C/c3ccccc3)C2)cc1", "27.3 µM"),
    ("O=c1cccccc1[O-].O=c1cccccc1[O-].O=c1cccccc1[O-].[Nd+3]", "> 100 µM"),
    ("Nc1[nH]c(=O)nc2c1cnn2COCCO", "> 100 µM"),
    ("CCN(N=O)C1C2(CCCC2)NC(=O)C12CCCC2 (centres undefined)", "> 100 µM"),
    ("O=C1C(Cl)C(c2ccc(O)cc2)N1n1cnc2ccccc2c1=O (centres undefined)", "> 100 µM"),
]

The value of TGI measured for the compound CN1CCCS/C1=C1/SC(=S)N(c2ccccc2)C1=O turned out to be > 100 µM

TGI measured on CC1=C2CC[C@@]3(C)C(=CCC3O)C2(C)CCC1=O (some centres undefined) = > 100 µM

Input OC1CC(O)O[C@H](c2ccccc2)C1 (some centres undefined) . Output TGI: > 100 µM

Record O=P1(Oc2ccc(Cl)cc2Cl)Oc2cc3ccccc3cc2O1 , field TGI: > 100 µM
